Values compiled from patent US20060257407A1.

Reported koff values for a set of binders
# EXPERIMENTAL_SYSTEM: T1, recombinant human IL-6 (human, UniProt P05231 30-212)
# T1 construct: Bought from R&D Systems (206-IL-010); Biotinylated or coupled to beads in some assays; also called hIL-6; rhIL-6
# T1 sequence (P05231 30-212 limits assumed): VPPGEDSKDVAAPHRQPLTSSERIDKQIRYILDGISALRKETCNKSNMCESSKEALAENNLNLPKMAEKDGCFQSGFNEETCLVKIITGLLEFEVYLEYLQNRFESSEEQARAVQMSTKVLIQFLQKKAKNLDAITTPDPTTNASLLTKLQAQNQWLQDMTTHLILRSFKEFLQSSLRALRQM
# TEST_DESCRIPTION: calculated from KD = koff/kon, KinExA 3000
Please respond with the number in s⁻¹ and leave the unit unwritten.

INSERT INTO measurements (binder, metric_name, readout_unit, experimental_value) VALUES
  ('AME-20b (antibody, V domains shown, Tested as IgG; also called 140) VH: EVQLVESGGGLVQPGGSLRLSCAASGFQFSSFAMSWVRQAPGKGLEWVAKISPGGSYTYYSDTVTGRFTISRDNAKNSLYLQMNSLRAEDTAVYYCARQLWGYYALDIWGQGTTVTVSS VL: EIVLTQSPATLSLSPGERATLSCSASISVSYMYWYQQKPGQAPRLLIYDMSNLASGIPARFSGSGSGTDFTLTISSLEPEDFAVYYCMQWSGYPYTFGGGTKVEIK', 'koff', 's⁻¹', '3.7e-06'),
  ('AME-18a (antibody, V domains shown, Tested as IgG; also called 130) VH: EVQLVESGGGLVQPGGSLRLSCAASGFQFSPFAMSWVRQAPGKGLEWVAKISPGGSWTYYSDTVTGRFTISRDNAKNSLYLQMNSLRAEDTAVYYCARQLWGYYALDIWGQGTTVTVSS VL: EIVLTQSPATLSLSPGERATLSCSASSSVSYMYWYQQKPGQAPRLLIYDFSNLASGIPARFSGSGSGTDFTLTISSLEPEDFAVYYCMQWSGYPYTFGGGTKVEIK', 'koff', 's⁻¹', '2.4e-06'),
  ('AME-22a (antibody, V domains shown, Tested as IgG; also called 150) VH: EVQLVESGGGLVQPGGSLRLSCAASGFQFSPFAMSWVRQAPGKGLEWVAKISPGGSWTYYPDTDTGRFTISRDNAKNSLYLQMNSLRAEDTAVYYCARQLWGYYALDFWGQGTTVTVSS VL: EIVLTQSPATLSLSPGERATLSCSASYSVSYMYWYQQKPGQAPRLLIYDFSNLASGIPARFSGSGSGTDFTLTISSLEPEDFAVYYCMQWSGYPYTFGGGTKVEIK', 'koff', 's⁻¹', '1.1e-06'),
  ('AME-16 (antibody, V domains shown, Tested as IgG; also called AME-A16; 106) VH: EVQLVESGGGLVQPGGSLRLSCAASGFTFSSFAMSWVRQAPGKGLEWVAKISPGGSYTYYPDTVTGRFTISRDNAKNSLYLQMNSLRAEDTAVYYCARQLWGYYALDYWGQGTTVTVSS VL: EIVLTQSPATLSLSPGERATLSCSASSSVSYMYWYQQKPGQAPRLLIYDTSNLASGIPARFSGSGSGTDFTLTISSLEPEDFAVYYCSQWSGYPYTFGGGTKVEIK', 'koff', 's⁻¹', '8.3e-07'),
  ('AME-19a (antibody, V domains shown, Tested as IgG; also called 136; human engineered anti-IL-6 (clone AME-19a) antibody) VH: EVQLVESGGGLVQPGGSLRLSCAASGFTFSPFAMSWVRQAPGKGLEWVAKISPGGSWTYYSDTVTGRFTISRDNAKNSLYLQMNSLRAEDTAVYYCARQLWGYYALDIWGQGTTVTVSS VL: EIVLTQSPATLSLSPGERATLSCSASISVSYMYWYQQKPGQAPRLLIYDMSNLASGIPARFSGSGSGTDFTLTISSLEPEDFAVYYCMQWSGYPYTFGGGTKVEIK', 'koff', 's⁻¹', '2e-07');

For the binder AME-23a (antibody, V domains shown, Tested as IgG; also called 143) VH: EVQLVESGGGLVQPGGSLRLSCAASGFQFSSFAMSWVRQAPGKGLEWVAKISPGGSYTYYSDTVTGRFTISRDNAKNSLYLQMNSLRAEDTAVYYCARQLWGYYALDFWGQGTTVTVSS VL: EIVLTQSPATLSLSPGERATLSCSASYSVSYMYWYQQKPGQAPRLLIYDMSNLASGIPARFSGSGSGTDFTLTISSLEPEDFAVYYCMQWSGYPYTFGGGTKVEIK , what koff is on record?
4.4e-08
